Origin of the recorded values: patent US11814447B2

Molecular target: T1, Human EphA2 (Ecto) (Human, UniProt P29317 24-537)
T1 construct: extracellular domain
T1 sequence (P29317 24-537): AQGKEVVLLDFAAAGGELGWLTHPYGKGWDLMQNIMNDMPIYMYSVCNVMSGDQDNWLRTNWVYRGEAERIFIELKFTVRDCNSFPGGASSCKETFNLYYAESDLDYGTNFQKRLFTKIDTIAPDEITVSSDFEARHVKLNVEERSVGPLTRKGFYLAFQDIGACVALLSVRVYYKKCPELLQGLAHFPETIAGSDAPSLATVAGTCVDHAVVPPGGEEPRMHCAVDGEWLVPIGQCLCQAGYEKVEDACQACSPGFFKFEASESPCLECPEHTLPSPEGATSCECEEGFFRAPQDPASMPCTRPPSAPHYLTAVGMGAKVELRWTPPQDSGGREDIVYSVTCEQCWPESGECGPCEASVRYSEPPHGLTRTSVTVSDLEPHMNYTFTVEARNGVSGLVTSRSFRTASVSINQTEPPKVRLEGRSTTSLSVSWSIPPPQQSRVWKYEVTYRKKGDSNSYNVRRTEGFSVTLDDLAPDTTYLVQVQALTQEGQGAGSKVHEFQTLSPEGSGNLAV
Experiment: FP competition, tracer Compound 18
Starred links: 1 amine or outer side, 2 acyl side, 3 side chain; linkers in the order of their positions; H or OH if unused. Positions of bridges follow the written chain, without caps; N, C: chain ends. Non-standard residues stand in square brackets, D forms with d. Primed or numbered codes have the meaning given here. No end group written: not given here. TBMB′ = 1,3,5-tris(bromomethyl)benzene, 1,3,5-tris(methylene)benzene core, three thioethers to Cys; 1Nal = N[C@@H](Cc1cccc2ccccc12)C(=O)O; TBMB = c1c(C[*:1])cc(C[*:3])cc1C[*:2]; Tle = CC(C)(C)[C@H](N)C(=O)O; Aze = O=C(O)[C@@H]1CCN1; Aib = CC(C)(N)C(=O)O; Sar = CNCC(=O)O
Ki overview

| binder | Ki / nM |
| --- | --- |
| Ac-[Sar][Sar]H[dD]VPCPWG[Aib]FWCP[Tle]NR[Aib]GC (linker 7-14-21 via TBMB) [Bicycle Compound 270] | 1.52 |
| Ac-[Sar][Sar]A[dD]VTCPWGPFWCPLNRPGC (linker 7-14-21 via TBMB′) [Bicycle Compound 174] | 9.1 |
| Ac-[Sar][Sar]A[dD]VTCP[1Nal]G[Aib]FWCPVNR[Aib]GC (linker 7-14-21 via TBMB′) [Bicycle Compound 178] | 2.4 |
| [Sar][Sar]AHDV[Aze]CPWGPFWCPVNRPGC (linker 8-15-22 via TBMB) [Bicycle Compound 221] | 3.1 |
| AHDVPCP[1Nal]G[Aib]FWCP[Tle]NR[Aib]GC (linker 6-13-20 via TBMB) [Bicycle Compound 192] | 1.75 |
